tested on: PIK3CA (human), P42336 [M1043I]; assay: KINOMEscan competition binding; settings: compound 10.0 µM
Sequence (P42336 whole entry M1043I, looked up): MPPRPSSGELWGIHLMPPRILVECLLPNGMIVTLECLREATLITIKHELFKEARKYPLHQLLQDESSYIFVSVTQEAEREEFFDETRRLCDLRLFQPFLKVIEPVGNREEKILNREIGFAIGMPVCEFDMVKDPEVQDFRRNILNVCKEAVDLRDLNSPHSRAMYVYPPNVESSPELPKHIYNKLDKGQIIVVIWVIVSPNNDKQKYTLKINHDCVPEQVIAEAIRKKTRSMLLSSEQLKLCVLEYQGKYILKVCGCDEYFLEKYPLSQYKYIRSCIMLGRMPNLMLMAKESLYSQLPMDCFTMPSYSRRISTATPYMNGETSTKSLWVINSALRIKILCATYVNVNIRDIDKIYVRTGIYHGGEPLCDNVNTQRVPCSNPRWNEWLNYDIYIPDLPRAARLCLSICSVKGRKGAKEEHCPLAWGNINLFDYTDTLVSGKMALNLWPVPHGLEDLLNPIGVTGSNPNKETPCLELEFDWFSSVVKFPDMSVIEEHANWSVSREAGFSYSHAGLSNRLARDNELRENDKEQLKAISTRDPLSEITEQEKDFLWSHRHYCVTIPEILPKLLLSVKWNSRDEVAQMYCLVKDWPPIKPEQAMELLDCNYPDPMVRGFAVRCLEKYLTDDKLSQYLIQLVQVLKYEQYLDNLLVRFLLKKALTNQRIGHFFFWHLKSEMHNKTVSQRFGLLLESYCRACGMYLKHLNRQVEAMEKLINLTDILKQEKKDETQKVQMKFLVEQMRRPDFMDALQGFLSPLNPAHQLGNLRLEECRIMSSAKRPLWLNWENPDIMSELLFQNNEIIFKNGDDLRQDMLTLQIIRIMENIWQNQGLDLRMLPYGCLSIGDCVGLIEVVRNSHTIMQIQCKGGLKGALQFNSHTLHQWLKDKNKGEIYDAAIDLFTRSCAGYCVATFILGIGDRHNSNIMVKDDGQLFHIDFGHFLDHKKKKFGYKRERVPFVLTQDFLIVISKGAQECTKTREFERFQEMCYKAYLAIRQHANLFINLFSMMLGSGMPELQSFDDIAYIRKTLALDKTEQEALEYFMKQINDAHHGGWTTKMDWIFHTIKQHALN
Would you kindly list kinase still bound, per cent of control for each of these molecules?
Give bare numbers, in %.

Worked set:
NC(=O)Nc1cc(-c2cccc(F)c2)sc1C(=O)N[C@@H]1CCCNC1; 100
Cc1ccc(NC(=O)c2cccc(C(C)(C)C#N)c2)cc1Nc1ccc2ncn(C)c(=O)c2c1; 89
CCN1CCN(Cc2ccc(Nc3ncc4c(n3)N(C)c3ccccc3C(=O)N4C)cc2C(F)(F)F)CC1; 15

// for each molecule below, give its kinase still bound, per cent of control
1. CC(=O)c1c(C)c2cnc(Nc3ccc(N4CCNCC4)cn3)nc2n(C2CCCC2)c1=O
2. CNC(=O)Nc1ccc(-c2nc(N3CC4CCC(C3)O4)c3cnn(C4CCC5(CC4)OCCO5)c3n2)cc1
3. COc1cc(C(=O)N2CCC(N3CCN(C)CC3)CC2)ccc1Nc1ncc2c(n1)N(C)c1ccccc1C(=O)N2C
4. CCC(=O)N1CCN(c2ccc(-n3c(=O)ccc4cnc5ccc(-c6cnc7ccccc7c6)cc5c43)cc2C(F)(F)F)CC1
5. CCN(CC)CCCCNc1ncc2c(n1)N(C)C(=O)N(c1c(Cl)c(OC)cc(OC)c1Cl)C2
6. COc1cc(C(=O)NC2CCN(C)CC2)ccc1Nc1ncc2c(n1)N(C1CCCC1)CCC(=O)N2C(C)C

OUT:
[68, 4.4, 65, 8.6, 100, 100]
